- targetOrSystem: T1, human TGFβ1 (human, UniProt P01137 279-390)
- T1 construct: also called TGFβ1 homodimer
- T1 sequence (P01137 279-390 limits assumed): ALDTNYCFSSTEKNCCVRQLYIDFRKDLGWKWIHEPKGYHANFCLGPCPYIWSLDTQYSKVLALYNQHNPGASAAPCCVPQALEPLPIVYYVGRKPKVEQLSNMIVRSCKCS
- assayExplanation: Biacore off-rate vs wt GC1008, 50 nM
assayReadout: kd var/kd wt

The examples below pair each entry with its known result.
{"binder": "S30D (antibody, V domains shown, GC1008 IgG4 variant) VH: QVQLVQSGAEVKKPGSSVKVSCKASGYTFDSNVISWVRQAPGQGLEWMGGVIPIVDIANYAQRFKGRVTITADESTSTTYMELSSLRSEDTAVYYCASTLGLVLDAMDYWGQGTLVTVSS VL: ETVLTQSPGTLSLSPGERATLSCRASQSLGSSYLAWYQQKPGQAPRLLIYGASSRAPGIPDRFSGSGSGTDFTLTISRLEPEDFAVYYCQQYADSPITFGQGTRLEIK", "kd var/kd wt": 1.4}
{"binder": "Y27S (antibody, V domains shown, GC1008 IgG4 variant) VH: QVQLVQSGAEVKKPGSSVKVSCKASGSTFSSNVISWVRQAPGQGLEWMGGVIPIVDIANYAQRFKGRVTITADESTSTTYMELSSLRSEDTAVYYCASTLGLVLDAMDYWGQGTLVTVSS VL: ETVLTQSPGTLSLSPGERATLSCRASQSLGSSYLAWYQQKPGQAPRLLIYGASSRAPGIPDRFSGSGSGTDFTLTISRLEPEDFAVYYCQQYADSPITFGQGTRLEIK", "kd var/kd wt": 1.6}

# kd var/kd wt of D56H (antibody, V domains shown, GC1008 IgG4 variant) VH: QVQLVQSGAEVKKPGSSVKVSCKASGYTFSSNVISWVRQAPGQGLEWMGGVIPIVHIANYAQRFKGRVTITADESTSTTYMELSSLRSEDTAVYYCASTLGLVLDAMDYWGQGTLVTVSS VL: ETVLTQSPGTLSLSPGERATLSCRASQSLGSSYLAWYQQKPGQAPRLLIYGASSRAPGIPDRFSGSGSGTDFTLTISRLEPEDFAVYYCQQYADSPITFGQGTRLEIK = 1.1
